- Tested on: KM12 colon
- assay-summary: NCI-60 one-dose screen, 48 h
- experimental-conditions: 10 µM unless noted
About 83,000 compounds went through this panel and 20% of them were active in at least one assay; those are over-represented in the sample as a whole. Calls of active or inactive are those of the source. The calls were made as follows: active = growth percent below 10; inactive = the rest.
Respond using exactly one of the listed classes: active, inactive

Here's what some known entries look like.
* Cc1cc(O)c(C2=NN(c3ccc(S(N)(=O)=O)cc3)C(/C=C/c3ccccc3)C2)cc1Cl (centres undefined) | inactive
* NC1=C(c2nn[nH]n2)C(c2ccccc2Cl)c2ccc3ccccc3c2O1 (centres undefined) | inactive
* COc1cc2cc(Oc3ccc(NC(=O)Nc4cc(C(F)(F)F)cc(C(F)(F)F)c4)cc3)c(C)nc2cc1OCCN1CCOCC1 | inactive
* CCCCCCn1c(-c2ccc(C(=O)O/N=C(\N)c3ccc4c(c3)OCO4)cc2)nc(-c2ccccc2)c1-c1ccccc1 | inactive
* CNC(=O)c1cc(-n2ccc3cc(NC(=O)c4ccc(N5CCOCC5)c(C(F)(F)F)c4)ccc32)ccn1 | inactive
* O=C1c2cccc3cccc(c23)C(=O)N1Nc1nc(N2CCOCC2)nc(N2CCN(c3ccccc3)CC2)n1 | inactive
* O=C(S)CNC(=O)c1ccccc1 | inactive
* Cc1cccc(NCc2cn(-c3ccc(C(=O)O)cc3)nc2-c2ccc(C(=O)O)cc2)n1 | inactive
* C=CCNc1ccc2c3c(cccc13)C(=O)N(N1C(=O)c3cccc4cccc(c34)C1=O)C2=O | inactive
* COc1cc2cc(Oc3ccc(NC(=O)Nc4ccc(Cl)c(C(F)(F)F)c4)cc3)c(C)nc2cc1OCCN1CCOCC1 | inactive

Give the logged outcome of this assay for the following compound: "O=C1c2cccc3cccc(c23)C(=O)N1N1C(=O)c2cccc3c(NC4CCCCC4)ccc(c23)C1=O"
inactive

Give the logged outcome of this assay for the following compound: "COc1ccc2c(c1)c(-c1ccc(-c3cn(C)c4ccc(OC)cc34)o1)cn2C"
inactive

Give the logged outcome of this assay for the following compound: "COc1cc(C(=O)c2cc(C)c3[nH]c4ccc(O)cc4c3c2C)cc(OC)c1OC"
active
